// data source = PubChem BioAssay AID2685

# protocol-notes: qHTS Assay for Lipid Storage Modulators in Drosophila S3 Cells;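 on cell number change: cells counted by Cell Tracker Red CMTPX staining in the red channel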
# study-conditions: BODIPY lipid droplet fluorescence, 18-24 h, cells fed with added oleic acid; measured here: cell count max response
In all, about 320,000 compounds went through this assay and about 2,100 (0.66%) were called active. Inconclusive results (about 53%) are left out. The entries come from a sample that favours actives as a whole.
measured-property: cell number change

Given the molecule CC(C)CCn1c(CN(C)Cc2ccccc2)nc2c1c(=O)n(C)c(=O)n2C , what is its reported cell number change? -8.94%

Given the molecule CC(C)NC(=O)CN(C)S(=O)(=O)c1ccc(F)cc1 , what is its reported cell number change? 0.117%

Given the molecule COc1ccc2c(c1)c(C(=O)N/N=C/c1ccc(Br)cc1)c(C)n2C , what is its reported cell number change? 12%

Given the molecule C=C(C)Cn1c(CN(C)Cc2ccccc2)nc2c1c(=O)n(C)c(=O)n2C , what is its reported cell number change? -21.1%

Given the molecule CCCOc1ccc(/C=N/Nc2ccc(C(=O)O)cc2)c(OCCC)c1 , what is its reported cell number change? 9.43%

Given the molecule Cc1ccc(-n2ncc3c(SCc4ccccc4)ncnc32)cc1 , what is its reported cell number change? 8.14%

Given the molecule NS(=O)(=O)c1ccc(CNc2ncnc3sccc23)cc1 , what is its reported cell number change? -15.1%

Given the molecule Cc1cccc(-n2ncc3c(NCc4cccnc4)ncnc32)c1 , what is its reported cell number change? -21%

Given the molecule CCCNC(=O)CN(C)S(=O)(=O)c1ccc(F)cc1 , what is its reported cell number change? -1.04%

Given the molecule CCc1cc(=O)oc2c(C)c(OCC(=O)N3CCC(C(=O)O)CC3)ccc12 , what is its reported cell number change? -9.69%

Given the molecule CC(C)CC(=O)N1CCN(Cc2ccc(Cl)cc2)CC1 , what is its reported cell number change? 1.4%

Given the molecule CC1(C)C2CCC1(CS(=O)(=O)Nc1ccccc1)C(=O)C2 (centres undefined) , what is its reported cell number change? -22.6%

Given the molecule O=C(NCc1ccccc1Cl)c1cnccc1C(F)(F)F , what is its reported cell number change? 0.794%

Given the molecule Cc1cc(C)nc(CCNC(=O)C2CCC(=O)N(Cc3ccccc3F)C2)n1 (centres undefined) , what is its reported cell number change? 14.5%

Given the molecule O=C(Nc1ccccc1)c1cccnc1NCCc1ccccc1 , what is its reported cell number change? -3.52%

Given the molecule CCOC(=O)/C(=N/Nc1ccc(OC)cc1)N1CCCc2ccccc21 , what is its reported cell number change? -4.8%

Given the molecule CC(C)c1ccc(CNCCCSc2ncccn2)cc1 , what is its reported cell number change? -5.03%

Given the molecule c1ccc(CNc2ncnc3sccc23)cc1 , what is its reported cell number change? -15.5%

Given the molecule Cc1cccc(Cn2c(N(C)CCO)nc3c2c(=O)[nH]c(=O)n3C)c1 , what is its reported cell number change? 28.6%

Given the molecule COc1ccc(-n2ncc3c(NCc4cccnc4)ncnc32)cc1 , what is its reported cell number change? -6.4%

Given the molecule Cn1c(C(=O)N2CCN(c3ccc(Cl)cc3)CC2)cc2c(=O)[nH]c3ccccc3c21 , what is its reported cell number change? 18.3%

Given the molecule COc1cccc(-c2nc(-c3ccccn3)no2)c1 , what is its reported cell number change? -6.27%

Given the molecule CCC1(CC)Cc2ccccc2C(C2=C(O)CC(C)(C)CC2=O)=N1 , what is its reported cell number change? 0.769%

Given the molecule Clc1ccc(-n2ncc3c(NCc4cccnc4)ncnc32)cc1Cl , what is its reported cell number change? -22.6%

###

# protocol-notes: qHTS Assay for Lipid Storage Modulators in Drosophila S3 Cells
# study-conditions: BODIPY lipid droplet fluorescence, 18-24 h, cells fed with added oleic acid; series mostly up to 46.1 µM
About 2,100 (0.66%) of roughly 320,000 compounds were called active. Roughly 53% stayed inconclusive and do not appear here. The call rests on the fitted dose curve; in most records, active means well fitted inhibition curve with a large enough effect in the signal ratio, with a control signal flat (not every such curve was filed as active); inconclusive means small, poorly fitted or top-dose-only effect, or effect the other way, or a change in a side signal; inactive means flat fitted curve, though single readings scatter; the % refers to the signal ratio. Shown is part of a subset that was picked to be rich in actives.
Classes to choose from: active, inactive

State the result this test recorded for Cc1c(C(=O)O/N=C(\N)c2ccccn2)cccc1[N+](=O)[O-] . inactive

State the result this test recorded for O=C(Nc1ccccc1C(=O)OC1CCOC1=O)c1ccco1 (stereo not drawn) . inactive

State the result this test recorded for Cn1cc(Cl)c(C(=O)Nc2nc3ccc([N+](=O)[O-])cc3s2)n1 . inactive

State the result this test recorded for O=C(O)c1ccc(NC(=O)C2CC=CCC2C(=O)O)cc1 (stereo not drawn) . active

State the result this test recorded for CCOc1ccc(CNC(=O)C2Cc3cc(S(=O)(=O)N4CCCCC4)ccc3N2C(C)=O)cc1 (stereo not drawn) . inactive

State the result this test recorded for OC1(c2ccccc2F)CCN(Cc2nnc(-c3ccccc3)o2)CC1 . inactive

State the result this test recorded for CCOC(=O)C(CCCOc1cccc(OC)c1)C(=O)OCC . inactive

State the result this test recorded for Cn1c(=O)c(C(=O)NNC(=O)c2ccccc2Br)c(O)c2ccccc21 . inactive

State the result this test recorded for NCCNC[C@@H]1COC2(CCCCCCCCCCC2)O1 . inactive

State the result this test recorded for N=C1C(=O)OCC1c1ccccc1NC(=O)c1ccc(F)cc1 (stereo not drawn) . inactive

State the result this test recorded for COc1ccc(OC)c(CNC(=O)C(C)n2nc(C)c3c(C)n(-c4ccccc4)nc3c2=O)c1 (stereo not drawn) . inactive

State the result this test recorded for Cc1ccc(/C=C2/SC(=S)N(CCC(=O)N3CCN(C)CC3)C2=O)cc1 . inactive

State the result this test recorded for O=C(NCC1CCCO1)c1ccc2c(c1)C(=O)N(C1CCCCC1)C2=O (stereo not drawn) . inactive

State the result this test recorded for COc1ccc(Cc2noc(CN3CCN(Cc4csc(C)n4)CC3)n2)cc1OC . inactive

State the result this test recorded for COc1cc(C(C)=O)ccc1COc1ccc(C(=O)OC(C)C(=O)NC(N)=O)cc1OC (stereo not drawn) . inactive

State the result this test recorded for CCCCn1c(CCNC(=O)c2ccco2)nc2ccccc21 . inactive

State the result this test recorded for CCCC1(c2ccccc2)NC(=O)N(CC(=O)c2[nH]c(C)c(C(=O)OCC)c2C)C1=O (stereo not drawn) . active

State the result this test recorded for CCOC(=O)c1ccc(NC(=S)NNC(=O)c2cc(-c3cccnc3)nc3ccccc23)cc1 . inactive

State the result this test recorded for CCOc1ccccc1OCCCC(=O)Nc1nc2ccccc2[nH]1 . inactive

State the result this test recorded for O=C(Nc1nnc(SCC(=O)N2CCOCC2)s1)c1ccccc1 . inactive

State the result this test recorded for O=C(NCC1CCCO1)c1ccc2c(c1)C(=O)N(c1cccc([N+](=O)[O-])c1)C2=O (stereo not drawn) . active

State the result this test recorded for C=CCn1c(SCC(=O)Nc2nccs2)nnc1-c1cc2cccc(OC)c2o1 . inactive

State the result this test recorded for CCOC(=O)C1=C(N)OC2=C(C(=O)CC(C)(C)C2)C1c1cccnc1 (stereo not drawn) . inactive

State the result this test recorded for O=C1C(NS(=O)(=O)c2cccs2)=C(N2CCOCC2)C(=O)c2ccccc21 . inactive

State the result this test recorded for Cc1nnc(NC(=O)CSc2ccc(-c3ccco3)nn2)s1 . inactive

State the result this test recorded for Cn1c(=O)c2c(O)c(Cc3ccccc3)c(=O)[nH]c2n(C)c1=O . inactive

State the result this test recorded for CCc1ccc(N2C(=O)C3NN=C(C(=O)OCc4ccccc4)C3C2=O)cc1 (stereo not drawn) . inactive

State the result this test recorded for O=C1C(Cl)=C(Nc2ccc3cn[nH]c3c2)C(=O)c2ccccc21 . active

State the result this test recorded for Cc1ccc(NC(=O)CS(=O)CC(=O)N(CC(=O)NC(C)(C)C)c2cccc(C)c2C)cc1 (stereo not drawn) . inactive

State the result this test recorded for O=S1(=O)CC/C(=N\O)c2ccccc21 . inactive

State the result this test recorded for CC(=O)N1c2ccc(S(=O)(=O)N3CCCC3)cc2CC1C(=O)NCc1ccc(N(C)C)cc1 (stereo not drawn) . inactive

State the result this test recorded for Cc1nc(SCC(O)CCl)c([N+](=O)[O-])[nH]1 (stereo not drawn) . inactive

State the result this test recorded for NC(=O)Cn1cc(C(=O)C(=O)N2CCOCC2)c2ccccc21 . inactive

State the result this test recorded for CCc1ccc(CNC(=O)C2Cc3cc(S(=O)(=O)N4CCCC4)ccc3N2C(C)=O)cc1 (stereo not drawn) . active

State the result this test recorded for O=C(O)C1CC=CCC1C(=O)Nc1ccc(S(=O)(=O)N2CCCc3ccccc32)cc1 (stereo not drawn) . active

State the result this test recorded for C=CCn1c(CCNC(=O)c2ccco2)nc2ccccc21 . inactive

State the result this test recorded for O=C(NC(Nc1nc2ccc([N+](=O)[O-])cc2s1)(C(F)(F)F)C(F)(F)F)c1ccccc1Cl . active

State the result this test recorded for O=S(=O)(Nc1ccc2cn[nH]c2c1)c1ccc(Cl)cc1 . inactive

State the result this test recorded for COC(=O)/C=C1\NCCNC1=O . inactive

State the result this test recorded for O=C(NCC1CCCO1)c1ccc(NS(=O)(=O)c2cccc([N+](=O)[O-])c2)cc1 (stereo not drawn) . inactive

State the result this test recorded for C=C(C)Cn1c(CCNC(=O)c2ccco2)nc2ccccc21 . active

State the result this test recorded for CCn1c(SCC(=O)Nc2nccs2)nnc1-c1ccc(C)cc1 . inactive

State the result this test recorded for COc1ccccc1Nc1nnc(SCC(=O)c2cc(C)n(CC3CCCO3)c2C)s1 (stereo not drawn) . inactive
